Target: EZH2 (zEZH2) (Danio rerio)
Sequence (Q08BS4 whole entry): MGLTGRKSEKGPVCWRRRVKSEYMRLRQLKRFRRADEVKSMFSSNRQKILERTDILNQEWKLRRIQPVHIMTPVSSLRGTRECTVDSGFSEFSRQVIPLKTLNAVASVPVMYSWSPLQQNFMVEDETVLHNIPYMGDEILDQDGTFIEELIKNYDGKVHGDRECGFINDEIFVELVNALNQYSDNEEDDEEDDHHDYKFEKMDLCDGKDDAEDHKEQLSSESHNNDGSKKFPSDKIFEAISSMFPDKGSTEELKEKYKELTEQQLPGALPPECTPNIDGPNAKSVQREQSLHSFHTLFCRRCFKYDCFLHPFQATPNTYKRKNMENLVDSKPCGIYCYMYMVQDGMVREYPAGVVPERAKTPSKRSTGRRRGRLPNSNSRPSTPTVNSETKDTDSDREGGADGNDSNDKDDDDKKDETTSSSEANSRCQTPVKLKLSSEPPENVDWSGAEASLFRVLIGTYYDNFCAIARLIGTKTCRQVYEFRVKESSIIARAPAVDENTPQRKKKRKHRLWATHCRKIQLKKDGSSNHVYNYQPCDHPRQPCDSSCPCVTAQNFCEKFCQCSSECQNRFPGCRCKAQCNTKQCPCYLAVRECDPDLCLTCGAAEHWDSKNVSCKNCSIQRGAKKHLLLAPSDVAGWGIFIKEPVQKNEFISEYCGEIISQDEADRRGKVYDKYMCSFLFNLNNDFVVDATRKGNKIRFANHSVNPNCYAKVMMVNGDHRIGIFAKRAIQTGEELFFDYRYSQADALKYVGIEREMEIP
Reported endpoint: Kd (µM)
Quick reminder: number only, in µM, skip the unit.

Looking up Cc1coc2c1C(=O)C(=O)c1c-2ccc2c(C)cccc12 , I found its Kd recorded as 29.4
